The origin of these recorded values is paper PMC7552917.

- assay-system: CDK6 (Homo sapiens, UniProt Q00534)
- Construct: Percentage values are normalized to DMSO-treated MM.1S cells and the respective loading controls; endogenous in cells; host or cells: MM.1S (human multiple myeloma)
- Sequence (Q00534 whole entry): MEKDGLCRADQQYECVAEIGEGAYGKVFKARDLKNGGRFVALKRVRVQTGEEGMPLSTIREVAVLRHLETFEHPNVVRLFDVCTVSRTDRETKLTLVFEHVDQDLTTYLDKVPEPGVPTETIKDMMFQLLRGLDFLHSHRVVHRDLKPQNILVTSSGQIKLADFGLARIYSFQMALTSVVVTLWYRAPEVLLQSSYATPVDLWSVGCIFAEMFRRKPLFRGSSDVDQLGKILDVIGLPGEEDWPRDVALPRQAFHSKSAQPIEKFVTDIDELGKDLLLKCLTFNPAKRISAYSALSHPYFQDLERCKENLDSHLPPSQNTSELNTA
- assay-info: CDK6 degradation, western blot of MM.1S cells
- Type: cell-based
- condition-context: 0.1 μM, 16 h, MM.1S cells
outcome-measure: Selectivity ratio D CDK4/D CDK6 for the degradation of CDK6 over CDK4

Worked cases, Selectivity ratio D CDK4/D CDK6 for the degradation of CDK6 over CDK4 given:
CC(=O)c1c(C)c2cnc(Nc3ccc(N4CCN(C(=O)COCCOCCNc5cccc6c5C(=O)N(C5CCC(=O)NC5=O)C6=O)CC4)cn3)nc2n(C2CCCC2)c1=O (stereo not drawn) [compound 12]: 2.3
CC(=O)c1c(C)c2cnc(Nc3ccc(N4CCN(CCOCCOCCOc5cc(-c6scnc6C)ccc5CNC(=O)[C@@H]5C[C@@H](O)CN5C(=O)[C@@H](NC(=O)C5(F)CC5)C(C)(C)C)CC4)cn3)nc2n(C2CCCC2)c1=O [34 (CST651)]: 31
CC(=O)c1c(C)c2cnc(Nc3ccc(N4CCN(CCOCCOCCOCCNC(=O)COc5cccc6c5C(=O)N(C5CCC(=O)NC5=O)C6=O)CC4)cn3)nc2n(C2CCCC2)c1=O (stereo not drawn) [8 (BSJ-03-123), BSJ-03-123, reference compound]: 4.9
CC(=O)c1c(C)c2cnc(Nc3ccc(N4CCN(CCCCCCCC(=O)N[C@H](C(=O)N5C[C@H](O)C[C@H]5C(=O)NCc5ccc(-c6scnc6C)cc5)C(C)(C)C)CC4)cn3)nc2n(C2CCCC2)c1=O [compound 22]: 4.1

I. CC(=O)c1c(C)c2cnc(Nc3ccc(N4CCN(CCOCCOCCOCC(=O)N[C@H](C(=O)N5C[C@H](O)C[C@H]5C(=O)NCc5ccc(-c6scnc6C)cc5)C(C)(C)C)CC4)cn3)nc2n(C2CCCC2)c1=O [compound 24]
II. CC(=O)c1c(C)c2cnc(Nc3ccc(N4CCN(C(=O)CCCCCNc5cccc6c5C(=O)N(C5CCC(=O)NC5=O)C6=O)CC4)cn3)nc2n(C2CCCC2)c1=O (stereo not drawn) [compound 11]
Problem: Param metric = Selectivity ratio D CDK4/D CDK6 for the degradation of CDK6 over CDK4; output whichever of I , II has the minimum value. Your answer should be the label attached to the chosen record.
Result: II

====

- assay-info: elog D7.4 by chromatographic (HPLC) method
- Type: physicochemical
- condition-context: Polaris C18-A column, pH 7.4, read-out: elog D7.4 (experimental distribution coefficient at pH 7.4)
outcome-measure: chromatographic logD

Worked cases, chromatographic logD given:
CC(=O)c1c(C)c2cnc(Nc3ccc(N4CCN(C(=O)CCC(=O)NCCCOCCCCOCCCNc5cccc6c5C(=O)N(C5CCC(=O)NC5=O)C6=O)CC4)cn3)nc2n(C2CCCC2)c1=O (stereo not drawn): 3.1
CC(=O)c1c(C)c2cnc(Nc3ccc(N4CCN(C(=O)CCCCCOCCOCCOCCOCCOCCOCCCCCCNc5cccc6c5C(=O)N(C5CCC(=O)NC5=O)C6=O)CC4)cn3)nc2n(C2CCCC2)c1=O (stereo not drawn): 3.7
CC(=O)c1c(C)c2cnc(Nc3ccc(N4CCN(CCCCCCCC(=O)N[C@H](C(=O)N5C[C@@H](O)C[C@H]5C(=O)NCc5ccc(-c6scnc6C)cc5)C(C)(C)C)CC4)cn3)nc2n(C2CCCC2)c1=O: 3.2
CC(=O)c1c(C)c2cnc(Nc3ccc(N4CCN(C(=O)CCCCOCCCCCOCCCCCCNc5cccc6c5C(=O)N(C5CCC(=O)NC5=O)C6=O)CC4)cn3)nc2n(C2CCCC2)c1=O (stereo not drawn): 4.6
CC(=O)c1c(C)c2cnc(Nc3ccc(N4CCN(CCCCCCCCOc5cc(-c6scnc6C)ccc5CNC(=O)[C@@H]5C[C@@H](O)CN5C(=O)[C@H](C(C)C)N5Cc6ccccc6C5=O)CC4)cn3)nc2n(C2CCCC2)c1=O: 4.5

A. CC(=O)c1c(C)c2cnc(Nc3ccc(N4CCN(CCOCCOCCOCC(=O)N[C@H](C(=O)N5C[C@H](O)C[C@H]5C(=O)N[C@@H](C)c5ccc(-c6scnc6C)cc5)C(C)(C)C)CC4)cn3)nc2n(C2CCCC2)c1=O
B. CC(=O)c1c(C)c2cnc(Nc3ccc(N4CCN(CCCCCCOCCCCCOCCCCCOc5cc(-c6scnc6C)ccc5CNC(=O)[C@@H]5C[C@@H](O)CN5C(=O)[C@H](C(C)C)N5Cc6ccccc6C5=O)CC4)cn3)nc2n(C2CCCC2)c1=O
Problem: Param metric = chromatographic logD; output whichever of A , B has the minimum value. Your answer should be the label attached to the chosen record.
Result: A

====

- assay-system: CDK6 (Homo sapiens, UniProt Q00534)
- Construct: Percentage values are normalized to DMSO-treated MM.1S cells and the respective loading controls; endogenous in cells; host or cells: MM.1S (human multiple myeloma)
- assay-info: CDK6 degradation, western blot of MM.1S cells
- Type: cell-based
- condition-context: MM1.S; 0.1 μM, 16 h, MM.1S cells, normalized to DMSO (100%); read-out: D CDK6: remaining CDK6 levels
outcome-measure: remaining activity at 0.1 µM (%)

Worked cases, remaining activity at 0.1 µM given:
CC(=O)c1c(C)c2cnc(Nc3ccc(N4CCN(C(=O)CCCCOCCOCCOCCNc5cccc6c5C(=O)N(C5CCC(=O)NC5=O)C6=O)CC4)cn3)nc2n(C2CCCC2)c1=O (stereo not shown) [compound 14]: 7.8
COc1cc(C(=O)O)ccc1NC(=O)[C@@H]1N[C@@H](CC(C)(C)C)[C@](C#N)(c2ccc(Cl)cc2F)[C@H]1c1cccc(Cl)c1F [6 (Idasanutlin), idasanutlin, reference compound]: 83
CC(=O)c1c(C)c2cnc(Nc3ccc(N4CCN(C(=O)CCC(=O)NCCCOCCCCOCCCNc5cccc6c5C(=O)N(C5CCC(=O)NC5=O)C6=O)CC4)cn3)nc2n(C2CCCC2)c1=O (stereo not shown) [compound 15]: 65
CC(=O)c1c(C)c2cnc(Nc3ccc(N4CCN(C(=O)COCCOCCNc5cccc6c5C(=O)N(C5CCC(=O)NC5=O)C6=O)CC4)cn3)nc2n(C2CCCC2)c1=O (stereo not shown) [compound 12]: 8.4
CC(=O)c1c(C)c2cnc(Nc3ccc(N4CCN(C(=O)CCCCCNc5cccc6c5C(=O)N(C5CCC(=O)NC5=O)C6=O)CC4)cn3)nc2n(C2CCCC2)c1=O (stereo not shown) [compound 11]: 11
CC(=O)c1c(C)c2cnc(Nc3ccc(N4CCN(CCOCCOCCOc5cc(-c6scnc6C)ccc5CNC(=O)[C@@H]5C[C@@H](O)CN5C(=O)[C@H](C(C)C)N5Cc6ccccc6C5=O)CC4)cn3)nc2n(C2CCCC2)c1=O [compound 29]: 29

P. CC(=O)c1c(C)c2cnc(Nc3ccc(N4CCN(C(=O)CCCCOCCCCCOCCCCCCNc5cccc6c5C(=O)N(C5CCC(=O)NC5=O)C6=O)CC4)cn3)nc2n(C2CCCC2)c1=O (stereo not shown) [compound 16]
Q. CC(=O)c1c(C)c2cnc(Nc3ccc(N4CCN(CCCCCCOCCCCCOCCCCCOc5cc(-c6scnc6C)ccc5CNC(=O)[C@@H]5C[C@@H](O)CN5C(=O)[C@H](C(C)C)N5Cc6ccccc6C5=O)CC4)cn3)nc2n(C2CCCC2)c1=O [compound 31]
Problem: Param metric = remaining activity at 0.1 µM; output whichever of P , Q has the minimum value. Your answer should be the label attached to the chosen record.
Result: P
(P: 32%, Q: 65%)

====

- Tested on: HEL cells
- assay-info: Cell viability assay (CellTiter-Glo), HEL cells
- Type: cell-based
- condition-context: Homo sapiens, 96 h
Each entry below carries its recorded pIC50.
Friendly reminder that pIC50 comes from taking -log10 of the concentration in mol/L.

Worked cases, pIC50 given:
CC(=O)c1c(C)c2cnc(Nc3ccc(N4CCN(CCOCCOCCOc5cc(-c6scnc6C)ccc5CNC(=O)[C@@H]5C[C@@H](O)CN5C(=O)[C@@H](NC(=O)C5(F)CC5)C(C)(C)C)CC4)cn3)nc2n(C2CCCC2)c1=O: 6.35
CC(=O)c1c(C)c2cnc(Nc3ccc(N4CCN(CCOCCOCCOCC(=O)N[C@H](C(=O)N5C[C@H](O)C[C@H]5C(=O)N[C@@H](C)c5ccc(-c6scnc6C)cc5)C(C)(C)C)CC4)cn3)nc2n(C2CCCC2)c1=O: 5.81

Shifting focus to the compound that follows.
Problem: Which pIC50 is listed for CC(=O)c1c(C)c2cnc(Nc3ccc(N4CCNCC4)cn3)nc2n(C2CCCC2)c1=O [palbociclib, reference compound] ?
Result: 5.38

====

- assay-system: CDK4 (Homo sapiens, UniProt P11802)
- Construct: Percentage values are normalized to DMSO-treated MM.1S cells and the respective loading controls; endogenous in cells; host or cells: MM.1S (human multiple myeloma)
- Sequence (P11802 whole entry): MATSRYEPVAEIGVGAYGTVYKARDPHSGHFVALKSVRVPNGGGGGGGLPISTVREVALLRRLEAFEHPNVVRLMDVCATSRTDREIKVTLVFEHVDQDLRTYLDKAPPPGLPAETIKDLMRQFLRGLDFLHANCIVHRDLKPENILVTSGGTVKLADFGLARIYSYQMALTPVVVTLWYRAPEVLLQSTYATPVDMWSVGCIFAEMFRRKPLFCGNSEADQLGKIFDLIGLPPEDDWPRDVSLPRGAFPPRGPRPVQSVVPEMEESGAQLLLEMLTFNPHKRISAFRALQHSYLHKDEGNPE
- assay-info: CDK4 degradation, western blot of MM.1S cells
- Format: cell-based
- condition-context: MM1.S; 0.1 μM, 16 h, MM.1S cells, normalized to DMSO (100%); read-out: D CDK4: remaining CDK4 levels
Each entry below carries its recorded remaining activity at 0.1 µM.

Worked cases, remaining activity at 0.1 µM given:
CC(=O)c1c(C)c2cnc(Nc3ccc(N4CCN(C(=O)CCCCCOCCCCOCCCCOCCCCOCCCCCCNc5cccc6c5C(=O)N(C5CCC(=O)NC5=O)C6=O)CC4)cn3)nc2n(C2CCCC2)c1=O (stereo not drawn) [compound 19]: > 95%
CC(=O)c1c(C)c2cnc(Nc3ccc(N4CCN(CCCCCCOCCCCCOCCCCC(=O)N[C@H](C(=O)N5C[C@H](O)C[C@H]5C(=O)NCc5ccc(-c6scnc6C)cc5)C(C)(C)C)CC4)cn3)nc2n(C2CCCC2)c1=O [compound 25]: > 95%

Shifting focus to the molecule that follows.
Problem: Which remaining activity at 0.1 µM is listed for CC(=O)c1c(C)c2cnc(Nc3ccc(N4CCN(CCCCCCCC(=O)N[C@H](C(=O)N5C[C@@H](O)C[C@H]5C(=O)NCc5ccc(-c6scnc6C)cc5)C(C)(C)C)CC4)cn3)nc2n(C2CCCC2)c1=O [compound 26] ?
Result: > 95%
